- measuredTarget: p110β/p85α (Homo sapiens (Human), UniProt P42338)
- Sequence (P42338 whole entry): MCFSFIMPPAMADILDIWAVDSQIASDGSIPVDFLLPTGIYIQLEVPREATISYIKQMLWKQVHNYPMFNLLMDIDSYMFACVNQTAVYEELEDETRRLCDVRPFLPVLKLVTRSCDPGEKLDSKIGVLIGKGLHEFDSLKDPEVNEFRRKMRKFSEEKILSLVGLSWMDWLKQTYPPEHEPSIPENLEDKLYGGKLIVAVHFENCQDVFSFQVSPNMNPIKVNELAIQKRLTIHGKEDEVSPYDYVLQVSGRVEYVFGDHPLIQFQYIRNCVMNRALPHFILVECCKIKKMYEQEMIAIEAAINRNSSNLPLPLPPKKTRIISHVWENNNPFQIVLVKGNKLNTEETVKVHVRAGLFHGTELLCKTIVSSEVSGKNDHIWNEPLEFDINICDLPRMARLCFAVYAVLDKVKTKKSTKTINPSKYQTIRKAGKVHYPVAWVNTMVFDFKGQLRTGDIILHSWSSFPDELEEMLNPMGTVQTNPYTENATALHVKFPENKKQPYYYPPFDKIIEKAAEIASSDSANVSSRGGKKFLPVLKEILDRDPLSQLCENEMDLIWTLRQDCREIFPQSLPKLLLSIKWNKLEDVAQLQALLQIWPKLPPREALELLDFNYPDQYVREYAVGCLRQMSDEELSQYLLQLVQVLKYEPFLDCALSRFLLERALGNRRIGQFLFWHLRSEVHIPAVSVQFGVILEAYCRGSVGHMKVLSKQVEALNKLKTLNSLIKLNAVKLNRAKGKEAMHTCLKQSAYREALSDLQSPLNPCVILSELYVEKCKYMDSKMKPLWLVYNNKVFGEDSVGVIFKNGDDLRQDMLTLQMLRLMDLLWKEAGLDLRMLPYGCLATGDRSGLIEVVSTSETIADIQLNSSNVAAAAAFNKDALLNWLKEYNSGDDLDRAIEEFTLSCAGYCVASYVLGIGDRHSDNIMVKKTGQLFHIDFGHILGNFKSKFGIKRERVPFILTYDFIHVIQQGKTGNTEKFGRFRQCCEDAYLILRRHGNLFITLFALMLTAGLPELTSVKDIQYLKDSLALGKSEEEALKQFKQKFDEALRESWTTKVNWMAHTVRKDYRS
- Sequence (P27986 whole entry partner): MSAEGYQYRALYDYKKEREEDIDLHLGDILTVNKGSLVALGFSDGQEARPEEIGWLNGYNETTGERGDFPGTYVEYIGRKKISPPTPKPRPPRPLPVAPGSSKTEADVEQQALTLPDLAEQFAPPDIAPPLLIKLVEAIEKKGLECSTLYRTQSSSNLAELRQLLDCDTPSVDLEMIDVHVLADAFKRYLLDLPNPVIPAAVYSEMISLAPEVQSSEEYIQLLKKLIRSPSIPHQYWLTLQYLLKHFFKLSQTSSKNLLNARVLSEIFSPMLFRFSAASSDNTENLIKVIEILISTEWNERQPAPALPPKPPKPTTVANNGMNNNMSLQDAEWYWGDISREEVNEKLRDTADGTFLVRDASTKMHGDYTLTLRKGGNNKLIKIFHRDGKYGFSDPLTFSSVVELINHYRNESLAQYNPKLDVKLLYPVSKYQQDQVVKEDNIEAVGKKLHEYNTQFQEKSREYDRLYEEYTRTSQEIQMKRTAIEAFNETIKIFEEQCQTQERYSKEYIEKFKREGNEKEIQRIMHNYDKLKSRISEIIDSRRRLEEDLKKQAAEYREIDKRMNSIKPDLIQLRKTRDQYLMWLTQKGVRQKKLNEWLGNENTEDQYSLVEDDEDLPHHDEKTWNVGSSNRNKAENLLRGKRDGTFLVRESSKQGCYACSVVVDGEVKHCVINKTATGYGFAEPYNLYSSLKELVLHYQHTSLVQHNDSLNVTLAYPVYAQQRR
- assayName: PI 3-Kinase (human) HTRF assay, p110β/p85α
- Assay type: biochemical
- setupConditions: read-out: PI3K β In Vitro IC50
As shown below, each of these compounds has a reported IC50 value.

>>> result("Nc1nc2cc(-c3ccc4ncc(C(=O)N5CC(N6CC[C@H](O)C6)C5)n4c3)ccc2o1")
"< 10 µM"
>>> result("CS(=O)(=O)Nc1cc(-c2ccc3ncc(C(=O)N4CCOCC4)n3c2)cnc1Cl")
"< 0.1 µM"
>>> result("O=C(c1cnc2ccc(-c3cnc(Cl)c(NS(=O)(=O)c4cccc(F)c4)c3)cn12)N1CCOCC1")
"< 0.1 µM"

INPUT: Form field: reported IC50 of `C[C@@H]1CCCN1C(=O)c1cnc2ccc(-c3ccc4oc(N)nc4c3)cn12`
OUTPUT: < 10 µM
